# Test system: Triosephosphate Isomerase from Yeast
# Type: biochemical, Saccharomyces cerevisiae
# condition.info: isomerization of DHAP; pH 7.5, 25 °C, I = 0.1 (NaCl)
quantity.name: DHAP kcat (s^–1)
Answer format: numeric, s^–1 implied, no suffix.

DHAP kcat recorded for this molecule, Y208F: Y208F loop 7 mutant of yeast triosephosphate isomerase (protein, UniProt P00942 2-248, looked up, variant Y208F) Triosephosphate isomerase: ARTFFVGGNFKLNGSKQSIKEIVERLNTASIPENVEVVICPPATYLDYSVSLVKKPQVTVGAQNAYLKASGAFTGENSVDQIKDVGAKWVILGHSERRSYFHEDDKFIADKTKFALGQGVGVILCIGETLEEKKAGKTLDVVERQLNAVLEEVKDWTNVVVAYEPVWAIGTGLAATPEDAQDIHASIRKFLASKLGDKAASELRILFGGSANGSNAVTFKDKADVDGFLVGGASLKPEFVDIINSRN , is 4.5

All values here come from paper PMC4694050.
